Measured koff by item
Molecular target: T1, recombinant human OX40/His fusion protein (Novoprotein, CB17) (human, UniProt P43489 29-216)
T1 construct: Bought protein
T1 sequence: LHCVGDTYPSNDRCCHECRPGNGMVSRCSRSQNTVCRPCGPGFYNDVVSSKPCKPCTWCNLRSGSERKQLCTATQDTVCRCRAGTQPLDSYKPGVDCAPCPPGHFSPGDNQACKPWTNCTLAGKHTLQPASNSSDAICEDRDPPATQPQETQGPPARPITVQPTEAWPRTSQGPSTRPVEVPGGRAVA
Test: BLI (Octet RED96), antibody on AHC sensor, OX40/His as analyte, test group 1
Experimental: All 17 antibodies in Table 4 were expressed by transient transfection of HEK293 cell, purified by Protein A chromatography, and assayed for and ranked by dissociation rate constant (koff). Briefly, antibodies binding affinities and kinetics were characterized by Octet® RED96 biolayer interferometry (Pall FortéBio LLC). Antibodies were captured by Anti-hIgG Fc Capture (AHC) Biosensors (Pall) at a concentration of 100 nM for 120 seconds. […]
Give just the numeric value; s⁻¹ need not be written.

{"binder": "EM1007-44c (antibody, human IgG1, V domains shown, also called EM1007-mAb044c; EM1007-044c) VH: QVQLQQSGPELVKPGASVTISCKASGHAFSSSWMNWVKQRPGKGLEWIGRIYPGDEITNYNGKFKDKATLTADKSSSTAYMQLSSLTFEDSAVYFCARDLLMPYWGQGTLVTVSA VL: DIVMTQTAFSNPVTLGTSASISCRSSKSLLYSNGITYLYWYLQKPGQSPHLLIYQMSNLAPGVPDRFSSSGSGTDFTLRISRVEAEDVGIYYCAQNLELPFTFGSGTKLEIK", "assay_endpoint": "koff", "assay_result": 0.000336}
{"binder": "HuEM1007-044-3 (antibody, human IgG1, kappa, L234A L235A, V domains shown, Humanized anti-OX40, human IgG1 LALA / kappa) VH: EVQLVQSGAEVKKPGSSVKVSCKASGHTFSSSWMNWVRQAPGQGLEWIGRIYPGDEITNYNGKFKDRVTLTADKSTSTAYMELSSLRSEDTAVYYCARDLLMPYWGQGTLVTVSS VL: DIVMTQTPLSLPVTPGEPASISCRSSKSLLYSNGITYLYWYLQKPGQSPQLLIYQMSNLAPGVPDRFSGSGSGTDFTLKISRVEAEDVGVYYCAQNLELPFTFGQGTKLEIKR", "assay_endpoint": "koff", "assay_result": 0.000859}
{"binder": "HuEM1007-044-1 (antibody, human IgG1, kappa, L234A L235A, V domains shown, Humanized anti-OX40, human IgG1 LALA / kappa) VH: EVQLVQSGAEVKKPGSSVKVSCKASGGTFSSSWMNWVRQAPGQGLEWMGRIYPGDEITNYNGKFKDRVTITADKSTSTAYMELSSLRSEDTAVYYCARDLLMPYWGQGTLVTVSS VL: DIVMTQTPLSLPVTPGEPASISCRSSKSLLYSNGITYLYWYLQKPGQSPQLLIYQMSNLAPGVPDRFSGSGSGTDFTLKISRVEAEDVGVYYCAQNLELPFTFGQGTKLEIKR", "assay_endpoint": "koff", "assay_result": 0.00103}
{"binder": "HuEM1007-044-2 (antibody, human IgG1, kappa, L234A L235A, V domains shown, Humanized anti-OX40, human IgG1 LALA / kappa) VH: EVQLVQSGAEVKKPGSSVKVSCKASGHTFSSSWMNWVRQAPGQGLEWMGRIYPGDEITNYNGKFKDRVTITADKSTSTAYMELSSLRSEDTAVYYCARDLLMPYWGQGTLVTVSS VL: DIVMTQTPLSLPVTPGEPASISCRSSKSLLYSNGITYLYWYLQKPGQSPQLLIYQMSNLAPGVPDRFSGSGSGTDFTLKISRVEAEDVGVYYCAQNLELPFTFGQGTKLEIKR", "assay_endpoint": "koff", "assay_result": 0.000944}

Data point: HuEM1007-044-5 (antibody, human IgG1, kappa, L234A L235A, V domains shown, Humanized anti-OX40, human IgG1 LALA / kappa) VH: EVQLVQSGAEVKKPGSSVKVSCKASGGTFSSSWMNWVRQAPGQGLEWMGRIYPGDEITNYNGKFKDRVTITADKSTSTAYMELSSLRSEDTAVYYCARDLLMPYWGQGTLVTVSS VL: DIVMTQTPLSLPVTPGEPASISCRSSKSLLYSNGITYLYWYLQKPGQSPQLLIYQMSNLAPGVPDRFSSSGSGTDFTLKISRVEAEDVGVYYCAQNLELPFTFGQGTKLEIKR ; koff = 0.000818

Recorded koff (binder HuEM1007-044-6 (antibody, human IgG1, kappa, L234A L235A, V domains shown, Humanized anti-OX40, human IgG1 LALA / kappa) VH: EVQLVQSGAEVKKPGSSVKVSCKASGHTFSSSWMNWVRQAPGQGLEWMGRIYPGDEITNYNGKFKDRVTITADKSTSTAYMELSSLRSEDTAVYYCARDLLMPYWGQGTLVTVSS VL: DIVMTQTPLSLPVTPGEPASISCRSSKSLLYSNGITYLYWYLQKPGQSPQLLIYQMSNLAPGVPDRFSSSGSGTDFTLKISRVEAEDVGVYYCAQNLELPFTFGQGTKLEIKR ): 0.00111
